# System: platelets
# assayComment: Platelets aggregation inhibitory activity (method of Born et al.), ADP-induced, human PRP (Pharmacological Test I)
# Format: cell-based, man
# protocolConditions: Homo sapiens, Platelet, 7.5 μM ADP, 37° C., read-out: IC50 ADP (50% platelets aggregation inhibition)
valueType: IC50 (µM)
Entry rule: numbers only, all in µM.

Prompt: Quick check: IC50 of N#Cc1ccc(CN(CCCCCOc2ccc3[nH]c(=O)ccc3c2)CCN2CCC(O)CC2)cc1 [Example 33] ?
Response: 5.6

Prompt: Quick check: IC50 of O=C(C1CCCCCCC1)N(CCCCOc1ccc2[nH]c(=O)ccc2c1)CCN1CCC(O)CC1 [Example 41] ?
Response: 8.7

Prompt: Quick check: IC50 of O=c1ccc2cc(OCCCCN(CCN3CCC(O)CC3)c3ccccc3)ccc2[nH]1 [Example 27] ?
Response: 6.7

Prompt: Quick check: IC50 of O=c1ccc2cc(OCCCS(=O)(=O)N(CCN3CCC[C@H]3CO)CC3CCCCCCC3)ccc2[nH]1 [Example 103] ?
Response: 2.6

Prompt: Quick check: IC50 of CC(=O)NCCN(CCCCOc1ccc2[nH]c(=O)ccc2c1)CC1CCCCCCC1 [Example 61] ?
Response: 4.9

Prompt: Quick check: IC50 of O=C(CN1CCC(O)CC1)N(CCCCOc1ccc2[nH]c(=O)ccc2c1)CC1CCCCCCC1 [Example 21] ?
Response: 4.2

Prompt: Quick check: IC50 of O=c1ccc2cc(OCCCCS(=O)(=O)N(CCN3CCC(O)CC3)Cc3ccccc3)ccc2[nH]1 [Example 89] ?
Response: 7.7

Prompt: Quick check: IC50 of CCN(CC)CCN(CCCCOc1ccc2[nH]c(=O)ccc2c1)CC1CCCCCC1 [Example 62] ?
Response: 18
